Target: T1, Med25-ACID_(532-680), activator interaction domain (ACID) of mediator complex subunit 25 (Arabidopsis thaliana, UniProt Q7XYY2 532-680)
T1 chain: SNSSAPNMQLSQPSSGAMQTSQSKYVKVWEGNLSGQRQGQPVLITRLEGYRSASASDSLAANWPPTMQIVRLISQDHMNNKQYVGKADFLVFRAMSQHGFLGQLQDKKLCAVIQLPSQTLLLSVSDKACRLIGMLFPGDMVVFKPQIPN
Assay: NMR; trans proline isomer, 10 °C
quantityName: pKd
Numbers only, as −log10 of the molar value.

Data point: QDSLSVADYGWPNDVDQSHLDSSDMFDVDELLRDLNGDDVFAG (domain or fragment, Arabidopsis thaliana, UniProt O82132 234-276, looked up, 13C,15N-labelled in the CEST experiments; Populates cis (30 ± 1%) and trans Trp244-Pro245 isomers in the free state; also called bivalent ABS-RIM fragment; source: E. coli BL21 DE3, purified (glutathione Sepharose, TEV cleavage, SEC); not shown: GST, N-terminal, cleaved) [DREB2A_(234-276) (ABS-RIM)] ; pKd = 6.72

Hello, the source for this data is paper PMC10796322, in case you need it.
